Entries and their IC50
# Assayed target: T1, human active NSP4 (hA-NSP4) (human, UniProt Q6UWY2 34-283)
# T1 construct: range 34-283; Insect-cell material of the same construct was used for the crystal structures; also called mature form of human NSP4
# T1 sequence (looked up): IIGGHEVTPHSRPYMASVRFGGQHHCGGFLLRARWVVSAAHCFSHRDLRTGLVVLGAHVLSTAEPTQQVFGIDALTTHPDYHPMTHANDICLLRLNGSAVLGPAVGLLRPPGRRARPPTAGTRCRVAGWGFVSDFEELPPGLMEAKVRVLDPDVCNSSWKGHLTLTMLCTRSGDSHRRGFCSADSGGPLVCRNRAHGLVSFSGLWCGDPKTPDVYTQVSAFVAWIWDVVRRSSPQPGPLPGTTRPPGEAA
# Assay overview: competition phage ELISA (phage IC50): phage clone preincubated with soluble hA-NSP4, then on NSP4-coated wells
Respond with the bare value in nM.

As a guide, the following entries are already answered.
>  <Binder>
anti-NSP4 antibody 2-1 (antibody, V domains shown) VH: EVQLVESGGGLVQPGGSLRLSCAASGFTFTDYSIHWVRQAPGKGLEWVAEIYPYSGDTYYADSVKGRFTISADTSKNTAYLQMNSLRAEDTAVYYCARDGDGWFDWAMDYWGQGTLVTVSS VL: DIQMTQSPSSLSASVGDRVTITCRASQDVSTAVAWYQQKPGKAPKLLIYSASFLYSGVPSRFSGSGSGTDFTLTISSLQPEDFATYYCQQSYTTPPTFGQGTKVEIKR

>  <Numeric readout>
3.81

$$$$
>  <Binder>
anti-NSP4 antibody 2-3 (antibody, V domains shown) VH: EVQLVESGGGLVQPGGSLRLSCAASGFTFTDSDISWVRQAPGKGLEWVAWISPSDGATDYADSVKGRFTISADTSKNTAYLQMNSLRAEDTAVYYCAHEASDDDYAIDYWGQGTLVTVSS VL: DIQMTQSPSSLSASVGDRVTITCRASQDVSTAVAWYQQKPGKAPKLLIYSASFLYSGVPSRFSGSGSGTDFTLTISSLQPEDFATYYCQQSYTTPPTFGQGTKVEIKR

>  <Numeric readout>
4.96

$$$$

Can you share its IC50? I mean this binder: anti-NSP4 antibody 4-2 (antibody, V domains shown) VH: EVQLVESGGGLVQPGGSLRLSCAASGFTFSGSDISWVRQAPGKGLEWVGEIYPSNGDTYYADSVKGRFTISADTSKNTAYLQMNSLRAEDTAVYYCARSVRPSWWAMDYWGQGTLVTVSS VL: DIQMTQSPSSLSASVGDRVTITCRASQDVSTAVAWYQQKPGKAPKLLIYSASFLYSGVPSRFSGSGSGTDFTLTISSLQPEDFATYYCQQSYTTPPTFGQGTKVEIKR
84.8

For the binder shown here, anti-NSP4 antibody 2-5 (antibody, V domains shown) VH: EVQLVESGGGLVQPGGSLRLSCAASGFTFTGYGISWVRQAPGKGLEWVGWIYPASGATYYADSVKGRFTISADTSKNTAYLQMNSLRAEDTAVYYCARHRAFDWYPYYIGSSVMDYWGQGTLVTVSS VL: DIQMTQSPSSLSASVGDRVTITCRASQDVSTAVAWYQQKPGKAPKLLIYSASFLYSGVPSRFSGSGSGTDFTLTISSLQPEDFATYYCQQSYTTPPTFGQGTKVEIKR , give the reported IC50.
5130

Which IC50 reading was recorded for the binder anti-NSP4 antibody 2-4 (antibody, V domains shown) VH: EVQLVESGGGLVQPGGSLRLSCAASGFTFSDYWISWVRQAPGKGLEWVAGISPNNGDTYYADSVKGRFTISADTSKNTAYLQMNSLRAEDTAVYYCAREDDDERDYAMDYWGQGTLVTVSS VL: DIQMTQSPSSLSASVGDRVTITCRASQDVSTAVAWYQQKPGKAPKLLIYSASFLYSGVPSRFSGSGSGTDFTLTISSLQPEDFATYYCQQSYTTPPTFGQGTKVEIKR ?
1.63

Would you kindly share the measured IC50 for anti-NSP4 antibody 2-2 (antibody, V domains shown) VH: EVQLVESGGGLVQPGGSLRLSCAASGFTFSSTAISWVRQAPGKGLEWVGEIYPSDGYTDYADSVKGRFTISADTSKNTAYLQMNSLRAEDTAVYYCARVKWAVSSLGVMDYWGQGTLVTVSS VL: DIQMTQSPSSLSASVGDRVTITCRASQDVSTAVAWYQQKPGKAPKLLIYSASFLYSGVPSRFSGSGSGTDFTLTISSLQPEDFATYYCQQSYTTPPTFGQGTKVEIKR ?
10.1

Quick check: IC50 of anti-NSP4 antibody 4-4 (antibody, V domains shown) VH: EVQLVESGGGLVQPGGSLRLSCAASGFTFTSTSIHWVRQAPGKGLEWVAEITPHGGYTNYADSVKGRFTISADTSKNTAYLQMNSLRAEDTAVYYCARGRTKWGWLYGMDYWGQGTLVTVSS VL: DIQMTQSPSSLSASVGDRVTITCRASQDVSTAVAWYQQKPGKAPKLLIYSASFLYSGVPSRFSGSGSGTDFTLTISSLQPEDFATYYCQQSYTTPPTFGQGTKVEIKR ?
1.48
